method-description: JC-1 mitochondrial signal, unstimulated MM1S myeloma – cell-based, JC-1 fluorescence, 24 h, 100 nL compound, profiling panel (AID 1170); also: test concentration not given here
settings: MM1S mitochondrial potential, higher = more signal
So basically, the class depends on measured z-score, and the ranges are small value (below -0.9), mid value (-0.9 to below -0.1), large value (-0.1 or more)

Query string: Sort into band: CCCCC(O)C1C=CC2C(=O)N(c3ccccc3)C(=O)C2N1Nc1ccc([N+](=O)[O-])cc1 (centres undefined)
Result string: mid value

Query string: Kindly state the category for this compound: COCC(=C=CC[C@H](O)c1ccccc1OCCO)C[C@H](O)COCc1ccccc1
Result string: mid value

Query string: Category of C=CCC(OC(C)=O)[C@@H]1[C@@H](N(Cc2ccc(-c3ccccc3)cc2)C(=O)c2cccc3ccccc23)c2cc(OCCCO)ccc2N1C(=O)Cc1ccc(OC)cc1 (some centres undefined) , please.
Result string: large value

Query string: Category lookup for the compound COCCOC(=O)N1C(=O)[C@@]2(c3cc(C#CCC(C(=O)OC)C(=O)OC)ccc31)[C@H](c1ccc(O)cc1)N1[C@H](c3ccccc3)[C@H](c3ccccc3)OC(=O)[C@H]1[C@@H]2C(=O)Nc1nc2ccccc2s1
Result string: large value

Query string: Lab note: which band did C=CCOC(=O)[C@H]1[C@@H]2C(=O)O[C@@H](c3ccccc3)[C@@H](c3ccccc3)N2[C@@H](c2ccc(OCCOC(=O)[C@@H]3C[C@@H]4C(=O)N[C@@H](CCCCNC(C)=O)C(=O)N4[C@@H]3c3cccc(OCCO)c3)cc2)[C@]12C(=O)Nc1ccccc12 land in?
Result string: small value

Query string: Category of CC(C)C[C@@H]1NC(=O)[C@@H]2C[C@H](C(=O)NCCCCCCNC(=O)CS)[C@H](c3cccc(OCCO)c3)N2C1=O , please.
Result string: mid value

Query string: Note: place this compound into its band. Item: CC(C)NC(=O)[C@@H]1c2ccccc2C(=O)N(Cc2ccccc2C(F)(F)F)[C@H]1c1ccc(CO)cc1
Result string: large value

Query string: Which band does N#Cc1ccc(-c2cccc(=O)o2)cc1 fall in?
Result string: mid value

Query string: GET /class?item= [N-]=[N+]=Nc1ccccc1C[C@@]1(C(=O)NCC(O)CO)N=C(c2ccc(OCCCO)cc2)O[C@@H]1c1ccccc1 (some centres undefined)
Result string: mid value

Query string: Could you tell me which band CN(C)CCCNC(=O)[C@@]1(Cc2ccccc2I)c2ccccc2C(=O)N(C2CCCCC2)[C@H]1c1ccc(CO)cc1 belongs to?
Result string: small value

Query string: In plain terms, what class is O=C1O[C@H](Cc2ccccc2)[C@@H]2[C@H]3C=CCCC=C3CN2[C@H]1Cc1ccc(O)cc1 ?
Result string: small value

Query string: Category of C#CCN1[C@@H](Cc2ccccc2)C(=O)O[C@H](Cc2ccccc2)[C@@H]1/C=C/C1CC1 , please.
Result string: large value

Query string: Which class does CCCC[C@H]1OB(O)C[C@H]2C1=C(COc1ccccc1)C[C@H]1C(=O)C=CC(=O)[C@H]12 fall in?
Result string: small value

// provenance: PubChem BioAssay
